# Tested on: PC-3 prostate
# protocol-text: NCI-60 one-dose screen, 48 h (100 = growth as untreated, 0 = no growth, -100 = all killed)
# recorded-conditions: 10 µM unless noted
The panel holds about 83,000 compounds, 20% with a hit somewhere; the sample as a whole holds those more often.
measurement-kind: growth (%)
Return type: number; implicit unit %.

Lookup: Field request: growth | item: COc1ccc(C(=O)c2cc(OC)c(OC)c(OC)c2)cc1OC(=O)CCl
Found: 17

Lookup: Field request: growth | item: CCc1ccc(OCc2ccccc2C(=O)Nc2ccc3nc(C)cc(N)c3c2)cc1
Found: -88.1

Lookup: Field request: growth | item: COc1ccc(-n2cc(-c3ccc(Cl)c(Cl)c3)[nH]c2=O)cc1OC
Found: 93.2

Lookup: Field request: growth | item: CCO/C=N/S(=O)(=O)c1cc2c(cc1Cl)NC=NS2(=O)=O
Found: 92.3

Lookup: Field request: growth | item: COc1cc(N=Nc2cc(S(=O)(=O)O)cc3cc(S(=O)(=O)O)cc(O)c23)c(C)cc1N=Nc1c(S(=O)(=O)O)cc2cc(Nc3ccccc3)ccc2c1O
Found: 90
